B1: HHH_rd1_0493 (parent)
chain: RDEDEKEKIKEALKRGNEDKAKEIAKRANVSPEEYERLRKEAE

- Variants of: B1
- assay name: folding stability dG (cDNA display proteolysis); higher = more stable
- measurement parameters: PBS, room temperature
measure: folding stability dG (kJ/mol)

sequence: RDEDEKEKIKEALKRGNEDKAKEIAKRANVSMEEYERLRKEAE
experimental value: 11.7

sequence: RDEDEKEKIKEALKRGNEDKAKEIAKRAFVSPEEYERLRKEAE
experimental value: 9.57

sequence: RDEDEKEKIKEALKRGNEDKAKEIAKRANVSPEEYERLRKEAI
experimental value: 12.9

sequence: RDEDEKEKIKEALKRGNEDKAKEIAKRANFSPEEYERLRKEAE
experimental value: 9.62

sequence: RMEDEKEKIKEALKRGNEDKAKEIAKRANVSPEEYERLRKEAE
experimental value: 12

sequence: RDEDEKEKIKEALKRGNEDKAKEIAKRANVSPQEYERLRKEAE
experimental value: 10.8

sequence: RDEDEKEKIKEALKGGNEDKAKEIAKRANVSPEEYERLRKEAE
experimental value: 11.3

sequence: RDEDEKEKIKEALKRGNEDKAKNIAKRANVSPEEYERLRKEAE
experimental value: 8.45

sequence: RDEDEKEKIKEALKLGNEDKAKEIAKRANVSPEEYERLRKEAE
experimental value: 12.9

sequence: RDEDEKEKIKEALKRGNEDKAKEHAKRANVSPEEYERLRKEAE
experimental value: 6.99

sequence: RDEDEKEKIKEALKRGNEDKAKEIAKRANVSPEEYWRLRKEAE
experimental value: 7.04
